- System: U251 CNS
- Protocol notes: NCI-60 one-dose screen, 48 h (100 = growth as untreated, 0 = no growth, -100 = all killed)
- Condition set: 10 µM unless noted
This is part of a sample that, as a whole, favours compounds with a hit. Of some 83,000 tested, about 20% had one in any assay.
Measured attribute: growth (%)
All answers are understood in %, so give the number only.

Some compounds with known growth results, for comparison:
1) Cc1ccc(/C=C/C(=O)c2ccc(S(=O)(=O)NCCNc3nc(N(C)C)nc(N4CCOCC4)n3)cc2)cc1 :: 42.7
2) CCC1(OC(=O)c2ccccc2SSCCOC(=O)CCCCC2SCC3NC(=O)NC32)C(=O)OCc2c1cc1n(c2=O)Cc2cc3ccccc3nc2-1 (centres undefined) :: 36.2
3) O=C1Nc2cc(-c3ccc(NS(=O)(=O)c4ccc(F)c(Cl)c4)cc3)ccc2/C1=C/c1ccc[nH]1 :: 2.34
4) COc1ccc(NC(=O)Cn2c(/C=C/c3cccc(Br)c3)nc3ccccc3c2=O)cc1 :: -1.66
5) CCOC(=O)c1ccc(NC(=S)NC(=O)c2ccc(NC(=O)C(C)C)cc2OC)cc1 :: 63.4
6) COc1sc(/C=N/NC(=O)c2[nH]c3ccc(Br)cc3c2-c2ccccc2)cc1Br :: -11.2
7) CN1C(=O)/C(=C/c2ccco2)S/C1=N/c1nccs1 :: 111
8) CCCCCCCCc1ccc(C(=O)Nc2cccc(O)c2)cc1 :: 77.5

Query :: Record `CS(=O)(=O)Nc1cc(-c2ccc3ncnc(N4CCc5cc(F)c(Cl)cc54)c3c2)cnc1Cl` : what is its growth with U251 CNS?
Result :: 17.8

Query :: Record `N#CCc1nnc(NC(=O)c2ccc(-n3c(=O)[nH]c4ccccc4c3=O)cc2)s1` : what is its growth with U251 CNS?
Result :: 106

Query :: Record `CCCN(CCC)S(=O)(=O)c1ccc(C(=O)O)cc1.CCCN(CCC)S(=O)(=O)c1ccc(C(=O)O)cc1.[Cl][Pt+2][Cl].[NH2-].[NH2-]` : what is its growth with U251 CNS?
Result :: -27.5

Query :: Record `Cc1ccc2c(c1)/C(=C/C(=O)c1cc3ccccc3oc1=O)C(=O)N2` : what is its growth with U251 CNS?
Result :: 73.9

Query :: Record `Nc1cc(-c2c[nH]c3ccc(Br)cc23)nc2cc(-c3c[nH]c4ccccc34)nn12` : what is its growth with U251 CNS?
Result :: -83.3

Query :: Record `COc1ccc(N=Nc2c(N)nn3c(N)c(C#N)c(-c4ccc(C)cc4)nc23)cc1` : what is its growth with U251 CNS?
Result :: 74.4

Query :: Record `CCCCCCCCCc1ccc(C(=O)Nc2cc(C)ccc2C(=O)OC)cc1` : what is its growth with U251 CNS?
Result :: 112

Query :: Record `CN(CCSSCCN1CCOCC1)C(=O)Oc1cc2c(c3ccccc13)[C@H](CCl)CN2C(=O)c1cc2cc(OCCCN3CCC3)ccc2[nH]1` : what is its growth with U251 CNS?
Result :: -60.3

Query :: Record CCOC(=O)/C(F)=C/C1CC1C(c1ccccc1)c1ccccc1 (centres undefined) : what is its growth with U251 CNS?
Result :: 109

Query :: Record `Cc1ccc2c(c1)nc(-c1ccccc1)n2CC(=O)N=Nc1c(O)[nH]c2ccc(Cl)cc12` : what is its growth with U251 CNS?
Result :: -77.7

Query :: Record `Cn1cc(-c2cc3nc(-c4c[nH]c5ccccc45)cc(N)n3n2)c2ccccc21` : what is its growth with U251 CNS?
Result :: -91.1

* * *

- Test system: NCI-H23 lung
- Protocol notes: NCI-60 one-dose screen, 48 h (100 = growth as untreated, 0 = no growth, -100 = all killed)
- Condition set: 10 µM unless noted
- Protocol: Growth inhibition of the NCI-H23 human Non-Small Cell Lung tumor cell line is measured as a screen for anti-cancer activity. Cells are grown in 96 well plates and exposed to the test compound for 48 hours. Compounds are tested at a single concentration, which is 10^-5 M for most compounds. The reported endpoint is percent growth (GI% or GIPRCNT), where numbers from 0 - 100% represent growth inhibition, and numbers from -100% - 0 represent cell death. […]
The panel holds about 83,000 compounds, 20% with a hit somewhere; the sample as a whole holds those more often.
Measured attribute: growth (%)
All answers are understood in %, so give the number only.

Some compounds with known growth results, for comparison:
1) O=C(c1cc2cc(OCCCN3CCC3)ccc2[nH]1)N1C[C@@H](CCl)c2c1cc(OCc1ccccc1)c1ccccc21 :: -73.4
2) CC(=O)c1c2c(c3ccc4c5ccccc5ccc4n13)C(=O)c1ccccc1C2=O :: 68.4
3) CNc1nc2ccccc2n2c(-c3ccc(O)c(O)c3)cnc12 :: 16.1
4) Cc1ccc(N=Nc2c(N)nn3c(-c4cc5cc(Br)ccc5oc4=O)ccnc23)cc1 :: 21.7

Query :: // growth lookup, key: `COc1ccc(-c2cc(-c3cc(C(C)C)c(O)cc3C)nn2-c2ccc(S(N)(=O)=O)cc2)cc1`
Result :: 41.5

Query :: // growth lookup, key: `COc1ccc(OC)c(Cn2cc(C#N)c(N)c2C(=O)c2ccc(Br)cc2)c1`
Result :: 54.4

Query :: // growth lookup, key: `O=C1Nc2cc(-c3ccc(NS(=O)(=O)c4ccc([N+](=O)[O-])cc4)cc3)ccc2/C1=C/c1ccc[nH]1`
Result :: 3.29

Query :: // growth lookup, key: `COc1ccc(N=Nc2c(N)nn3c(-c4cc5cc(Br)ccc5oc4=O)ccnc23)cc1`
Result :: -4.72

Query :: // growth lookup, key: CCOc1ccc2[nH]c(=O)c(C(c3nnnn3CC3CCCO3)N3CCN(Cc4ccccc4)CC3)cc2c1 (centres undefined)
Result :: 76.6

* * *

- Test system: SK-MEL-28 melanoma
- Protocol notes: NCI-60 one-dose screen, 48 h (100 = growth as untreated, 0 = no growth, -100 = all killed)
- Condition set: 10 µM unless noted
Compounds without any hit were thinned out: in the full panel of roughly 83,000, 20% have a hit.
molecules and their reported growth
All answers are understood in %, so give the number only.

Some molecules with known growth results, for comparison:
1) Nc1nn2c(-c3cc4cc(Br)ccc4oc3=O)ccnc2c1N=Nc1ccccc1 :: 52.5
2) Cc1ccc(-c2cc(C(=O)N=Nc3c(O)[nH]c4ccc(F)cc34)c3ccccc3n2)cc1 :: 14.5
3) COc1ccc2c(c1)C(Sc1ccc(Cl)cc1)c1c(nc(N)c(C#N)c1N)O2 (stereo not drawn) :: 99.8

Query :: // growth lookup, key: `CN1CCN(C(=O)CCN(C(=O)Oc2cc3c(c4ccccc24)[C@H](CCl)CN3C(=O)c2cc3cc(OCCCN4CCC4)ccc3[nH]2)[C@H]2CCSSC2)CC1`
Result :: -89.2

Query :: // growth lookup, key: `CN1CCN(C(=O)Oc2cc3c(c4ccccc24)[C@H](CCl)CN3C(=O)c2cc3cc(OCCCN4CCC4)ccc3[nH]2)[C@@H]2CSSC[C@H]21`
Result :: -39.5

Query :: // growth lookup, key: CC1CCc2c(sc3nc(SCC(=O)c4cccc([N+](=O)[O-])c4)n(-c4ccccc4)c(=O)c23)C1 (stereo not drawn)
Result :: 101

Query :: // growth lookup, key: Cc1ccc(O)cc1Nc1nc(SCCN2CCOCC2)nc2c1cnn2CC(Cl)c1ccc(Br)cc1 (stereo not drawn)
Result :: 17.1

Query :: // growth lookup, key: COc1ccc([C@H]2C(C(=O)c3ccc(Cl)cc3)C3(N[C@@H]2c2ccccc2)C(=O)Nc2ccccc23)cc1 (stereo partly drawn)
Result :: 49.7

Query :: // growth lookup, key: `COc1ccc(Nc2nnc(-c3c[nH]c4ccccc34)o2)cc1`
Result :: 107

Query :: // growth lookup, key: `CCCSc1nnc(-c2sc3nc4ccccc4n3c2C)o1`
Result :: 110

Query :: // growth lookup, key: `COc1cc(CNC(=O)C[C@H](C)CCC=C(C)C)ccc1OCc1cn(-c2ccc(Cl)c(Cl)c2)nn1`
Result :: 89.3

Query :: // growth lookup, key: `S=C(Nc1ccc(OCc2nc3ccc(Cl)cc3[nH]2)cc1)NC1CCCCC1`
Result :: 0.982

Query :: // growth lookup, key: `Cn1cc(-c2cc(N)n3nc(-c4c[nH]c5ccc(Cl)cc45)cc3n2)c2cccnc21`
Result :: -93.7

Query :: // growth lookup, key: `COc1ccc(-c2cc(-c3ccccc3)c(C#N)c(=O)[nH]2)cc1S(N)(=O)=O`
Result :: 107

Query :: // growth lookup, key: `COc1ccc(/C=C/C(=O)c2ccc(OC)c(S(N)(=O)=O)c2)c(C(F)(F)F)c1`
Result :: 35.5

Query :: // growth lookup, key: COc1ccc(SC2c3cc(OC)ccc3Oc3nc(N)c(C#N)c(N)c32)cc1 (stereo not drawn)
Result :: 111

Query :: // growth lookup, key: `CS(=O)(=O)Nc1cc(-c2ccc3ncnc(Nc4ccc(OCc5cccnc5)c(Cl)c4)c3c2)cnc1Cl`
Result :: -6.84

Query :: // growth lookup, key: `COc1ccc(/C=C/c2nc3ccccc3c(=O)n2CC(=O)Nc2ccccc2)cc1`
Result :: 79.1
